These entries and their values trace back to BigSolDB 2.1.

condition_description: in methyl acetate, 318.15 K
recorded_endpoint: solubility (mole fraction)

{"compound": "O=C1C(CCS(=O)c2ccccc2)C(=O)N(c2ccccc2)N1c1ccccc1 (stereo unspecified)", "recorded_endpoint": "solubility (mole fraction)", "number": 0.0345}

* * *

condition_description: in n-propanol, 323.15 K

{"compound": "O=C1C(CCS(=O)c2ccccc2)C(=O)N(c2ccccc2)N1c1ccccc1 (stereo unspecified)", "solubility (mole fraction)": 0.0183}

* * *

condition_description: in sec-butanol, 288.15 K

{"compound": "O=C1C(CCS(=O)c2ccccc2)C(=O)N(c2ccccc2)N1c1ccccc1 (stereo unspecified)", "solubility (mole fraction)": 0.00301}
